Experiment: inhibitors of the yeast RAM network, pilot screen, dse1pr::URA3 reporter, 5-FOA selection (AID 869);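 further: 0% = DMSO wells with no growth and 100% = 10 µM 1-NA-PP1 with full growth; RAM network block rescues cells from 5-FOA so hits raise OD615 growth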
Conditions: S. cerevisiae dse1pr::URA3 5-FOA growth, OD615, 2 d; at 10 µM; hits give high values; strain carries analog-sensitive mutant Cbk1 kinase
The source made the active and inactive calls.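 How the source made its calls: active means inhibition over a set limit, the all-compound mean plus 3 SD, in both replicate runs; inconclusive means over that limit in just one replicate run; inactive means at or under that limit in both runs.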
readout label: inhibition

Which inhibition value belongs to "O=C(NCCN1CCc2ccccc2C1)Nc1ccc(F)cc1" ? 2.19% (inactive)

Same question, CC1CCCN(Cc2nc3c(c(=O)n(C)c(=O)n3C)n2Cc2c(F)cccc2Cl)C1 (stereo unspecified) this time 1.09% (inactive)

What do we get for Cc1ccc(C2=CC(c3ccc(N(C)C)cc3)n3nnnc3N2)cc1 (stereo unspecified) ? 2.63% (inactive)

Param item: "Cc1noc(C(=O)NCc2ccco2)c1Cl" 1.78% (inactive)

Next compound: "O=C(Nc1ccccc1Cl)c1ccc(S(=O)(=O)N2CCOCC2)cc1" 0.585% (inactive)

Moving on to the next compound: "NC(=O)C1CCN(c2ncnc3c2c(-c2ccccc2)cn3-c2ccccc2)CC1" -0.35% (inactive)

---

Experiment: viability gain of MRP-1-high H69AR cells under doxorubicin, pilot screen, MRP-1 activator project, CellTiter-Glo, duplicate (AID 807);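 further: compound pretreatment 18-22 h then 72 h combined with doxorubicin; 0% = doxorubicin alone and 100% = vehicle without doxorubicin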
Conditions: H69AR viability with doxorubicin, CellTiter-Glo luminescence; at 10 µM; hits give high values
readout label: viability increase (%)
I only need the number, in %, no unit after it.

So what does the record say about viability increase for CCOc1ccccc1NC(=O)CSc1nc2c(c(=O)n1C)SC(C)C2 (stereo unspecified) ? -2.89

Do the same for "Cc1ccc(Cn2nnc3c(=O)n(Cc4ccccc4C)cnc32)cc1" please -2.98

What about this compound? "COc1ccc(NC(=O)Nc2ccc3nccnc3c2)cc1" -4.49

# repeat for "O=C(Cn1c(=O)oc2cc(S(=O)(=O)N3CCc4ccccc43)ccc21)NC1CCCC1" -1.06

// same read-out, input: "CCCC(=O)Nc1ccc(N2CCCCC2)cc1" -2.5

Next compound up: CCCc1ncc(C(O)c2cccc(OC)c2OC)n1C (stereo unspecified) -2.63

---

Test: OD615 S. cerevisiae growth inhibition, permissive medium, pilot counter-assay, permissive growth control for S. cerevisiae lifespan shortening project (AID 705)
Conditions: OD615, 24 h, at 10 µM, hits give high values
readout label: growth inhibition (%)
The figure you give is taken to be in %; do not add the unit.

Which growth inhibition is listed for "COc1ccc(NC(=O)CSc2nnc(-c3ccccn3)n2N)cc1" ? -5.41

Lookup C=CC(C)Sc1nc2c(c(=O)n(C)c(=O)n2C)n1Cc1ccccc1Cl (stereo not given) -3.12

How about this molecule: "C=CCNC(=O)c1cnc2n(c1=O)CCS2" 5.17

Same read-out for CCCNC(=O)C(Cc1ccccc1)NS(=O)(=O)c1ccc2c(c1)CCC(=O)N2 (stereo not given) ? -5.35

Same question, "Cn1c(=O)c2c(SC3CCCC3)nc(C3CC3)nc2n(C)c1=O" this time 3.3

Try this molecule next: "COCn1c(-c2cccc(Br)c2)nc2ccccc21" -10.2

What do we get for "COc1ccc(S(=O)(=O)Cc2ccc(C(=O)N3CCC(C(N)=O)CC3)o2)cc1" ? -3.35

Repeat with CC1CCCCN1CCNC(=O)c1cc2c(=O)n(C)c3ccccc3c2n1C (stereo not given) -12.9

Please answer likewise for "COc1ccccc1N1CCN(C(=O)CN(c2ccccc2OC)S(=O)(=O)c2ccccc2)CC1" -0.685

Now consider "COC(=O)c1sccc1NC(=O)c1ccc(Br)o1" . 12.1

Repeat for the following molecule: COc1cccc(-c2nc(CS(=O)CC(=O)NC3CCCC3)c(C)o2)c1 (stereo not given) -7.39

# iterate: "CCN(CC)CC(=O)n1c2c(c3ccccc31)CCCC2" 4.59

Let us now turn to "COc1ccc(-c2nc(=S)[nH][nH]2)cc1" -5.89

Now the same for CCOC(=O)C(C)n1cnc2c(nnn2-c2cccc(Cl)c2)c1=O (stereo not given) -4.37

Moving on to "N#Cc1c2n(c3c(=O)n(CC(=O)c4ccc(Br)cc4)cnc13)CCCC2" -18.3

Now the same for "COc1ccc2nc(NC(=O)c3ccc4ncsc4c3)sc2c1" 0.465

Then what about the molecule "CCOCCn1c(N(C)Cc2ccccc2)nc2c1c(=O)[nH]c(=O)n2C" ? -10.9

Try the molecule "CCC(=O)Nc1nnc(-c2ccc(OC)cc2)o1" -8.21

Proceed to "CCc1ccc(-c2nc(C(N)=O)c3[nH]c(=O)n(-c4ccccc4OC)c3n2)cc1" -5.67

Would you kindly repeat that for "CC(C)(C)SCCNS(=O)(=O)c1ccc(F)cc1" ? -4.57

Would you mind doing CCOc1ccc2nc(N3CCCC(C(=O)NCCCN4CCOCC4)C3)sc2c1 (stereo not given) as well? -10.1

Quick one: Cc1nn(-c2ccccc2)c2c1C(c1ccccc1)C(C#N)=C(N)O2 (stereo not given) -13.1

Quick one: "Cc1nc(SC(C)C)[nH]c(=O)c1Cc1ccccc1" -14.9

// query: NC(=O)NC1CCCc2c1[nH]c1ccc(Cl)cc21 (stereo not given) 1.64

Can you check "CCOC(=O)C(CCOc1cccc(CC)c1)C(=O)OCC" next? 4.28

Likewise for "c1ccc(CNc2nc3ccccc3n3cnnc23)nc1" ? -13.7

Note, next up: "O=C(NCCCc1ccccc1)C1CCN(c2nnc(-n3cccc3)s2)CC1" -1.03

For "COc1ccc(N2CCN(C(=O)c3sc4nc(-c5ccc(F)cc5)cn4c3C)CC2)cc1" then? -10.6

Repeat with "Cc1nn(C)c(C)c1NS(=O)(=O)c1ccccc1" -9.1

Would you mind doing "CN1CCN(C(=O)c2cn(C)c3ccc(S(=O)(=O)N(C)C4CCCCC4)cc3c2=O)CC1" as well? -7.8

Check "Cc1noc(C(=O)NCc2cccnc2)c1Cl" too. -7.93

For "Cc1cc2ncn(C(=O)c3c(-c4c(Cl)cccc4Cl)noc3C)c2cc1C" then? 0.3

Could you do the same for "Cc1cccc(N=C(N2CCOCC2)P(=O)(N2CCOCC2)N2CCOCC2)c1" , please? -24.7

Likewise for CCOc1ccc(NC2c3ccccc3C(=O)N2c2ccc(Cl)cn2)cc1 (stereo not given) ? -14

Please answer likewise for O=C1CC(c2ccccc2)C(C(=O)Nc2ccccc2F)N1 (stereo not given) -17.2

Also "COc1ccc(-c2nc(Cn3c(SCc4cccc(F)c4)nc4ccncc43)c(C)o2)cc1OC" ? 4.55

Same question, COC(=O)CSC1=C(C#N)C(c2ccccc2F)CC(=O)N1 (stereo not given) this time -9.32

// repeat for Cc1ccc(N(C(C)C(=O)O)S(=O)(=O)c2cccnc2)cc1 (stereo not given) and report 2.72

Another molecule: "N#CCCN1CCN(S(=O)(=O)c2ccc(S(=O)(=O)NCc3ccccc3)cc2)CC1" -3.28

What about "CCOC(=O)C(C(=O)OCC)=C1OC(=O)c2ccccc21" ? -11.1

What about this molecule? "O=C(CNC(=O)c1cnccn1)Nc1ccc(F)c(F)c1F" -8.69

Query "Cc1nn(-c2ccccc2)c(C)c1C(=O)OCC(=O)Nc1ccc2c(c1)OCO2" next -15.6

Same question for COC(=O)C(C)Sc1nnc(Cc2cc(=O)[nH]c(=O)[nH]2)n1-c1cccc(OC)c1 (stereo not given) please. -7.95

Follow-up entry: "O=C(Nc1ccc(Oc2ccccc2)cc1)c1cnc2n(c1=O)CCS2" -16.5

Next entry: CC(=O)NC(CCS(C)(=O)=O)C(=O)Nc1ccc(Oc2ccccc2)cc1 (stereo not given) -7.71

---

Assay: growth suppression of beta-catenin knockout HCT116, pilot screen, human colon tumor cells (AID 823);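 further: 0% = wells killed by 20 µM Hyamine and 100% = untreated DMSO cell wells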
Conditions: CellTiter-Glo, 60 h, at 10 µM, hits give low values
Records with an inconclusive call do not appear.
readout label: viability (%)
Only the number, expressed in %, is required.

Requested field: viability. Item: COc1ccc(-c2nc(CS(=O)CC(=O)N3CCc4ccccc4C3)c(C)o2)cc1 (stereo unspecified) 85.6

Likewise for "Brc1ccc2c(c1)c1nc3ccccc3nc1n2CCN1CCOCC1" ? 56

Moving on to COC(=O)C1(C)Nc2ccccc2C(=O)N1c1ccccc1OC (stereo unspecified) 103

And for O=C1Nc2ccccc2C(O)(C(=O)NCc2ccc3c(c2)OCO3)N1c1ccccc1 (stereo unspecified) ? 91.7

Next compound up: "CC(C)NC(=O)c1cc2c(-c3ccc(Cl)cc3)nn(C)c2s1" 74.5

Also check Nc1sc2c(c1C(=O)NC1CCS(=O)(=O)C1)CCCC2 (stereo unspecified) 93.3

---

Assay: Restrictive medium S. cerevisiae growth inhibition, OD615, pilot screen of yeast lifespan reduction project, restrictive growth control (AID 706);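 further: modified DeaD lifespan yeast strain shifted to restrictive glucose medium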
Settings: OD615, 48 h, at 10 µM, hits give high values
readout label: growth inhibition (%)
Answer format: numeric, % implied, no suffix.

Find the recorded growth inhibition belonging to "COCC(=O)Nc1cc(=O)n(C)c(=O)n1C" and report it. -24.4

Entry "COC(=O)c1c(NC(=O)CCCC(=O)O)sc(C)c1C" please 3.54

Also, "O=C(CSCC(=O)N1CCOCC1)Nc1ccccc1" please. -8.24

Subsequent entry: COc1cc(OC)c(C2CC(=O)N3CN(C)CSC3=C2C#N)cc1OC (centres undefined) 60

Likewise for "CC(=O)/C(C(=N)N1CCN(Cc2ccccc2)CC1)=C(\C)O" ? -5.25

Entry CC(C)Oc1ccc(C2CNC(=O)C2)cc1 (centres undefined) please 0.15

Same read-out for CC1(C)CC2CC(C)(CN2C(=O)C23CCC(C)(C(=O)O2)C3(C)C)C1 (centres undefined) ? -1.53

Queued: "COc1cc(NC(=O)CCCC(=O)OCC(F)(F)C(F)F)nc(OC)n1" -21.7

What do you have for CCOC(=O)C1=C(C)NC(=O)NC1c1ccc(C)o1 (centres undefined) ? 7.96

Follow-up item: "Cc1cccc(NC(=O)CN2C(=O)COc3ccc(Cl)cc32)c1C" -2.44

Same question for "Oc1cccc(/C=N/c2c(-c3ccco3)nc3ccccn23)c1" please. -4.22

Continue with "Cn1cccc1Cc1nnc(SCC(=O)NC2CCCCC2)n1-c1ccc(F)cc1" -4.1

One more compound: "CCc1cc(C(=O)Cc2cnn(-c3ccccc3)c2)c(O)cc1O" -9.12

Also need "Cc1ccc(-c2nc(CS(=O)(=O)CC(=O)N3CCc4ccccc4C3)c(C)o2)cc1" , thanks. -1.55

Would you mind doing "COc1ccc(C(=O)N2CCC(C(=O)Nc3ccc(OC)c(OC)c3)CC2)cc1" as well? -8.78

Cool, now "O=C(c1ccco1)N1CCN=C1SCc1cccc(Cl)c1" 14

Then what about the compound N#CC1=C(SCc2ccccc2)NC(=O)CC1c1ccc(O)cc1 (centres undefined) ? -15.2

What would you report for COc1ccc2[nH]cc(CCNC(=O)C3CCCNC3=O)c2c1 (centres undefined) ? -16.5

And what about the compound "Cc1c(=O)n(OCc2ccccc2)c2ccccc2[n+]1[O-]" ? 1.5

Cool, now "COc1ccccc1N(CC(=O)N1CCCCCC1)S(C)(=O)=O" -10.7

Subsequent entry: "O=C(Cn1cc2c(n1)CCCCC2)N1CCCCC1" -5.9

For "Cn1c(=O)[nH]c(=O)c2c1nc(CN1CCN(c3cccc(Cl)c3)CC1)n2Cc1ccccc1Cl" then? -6.86

Quick one: "Cc1cc(C(=O)Nc2ccc3c(c2)OCCO3)co1" 5.26

Same lookup for N#Cc1ccc(OCCN2C(=O)NC3(CCSC3)C2=O)cc1 (centres undefined) , please. -19
